The entries that follow carry Ki values tested on Glutamate receptor ionotropic, kainate 1 (Homo sapiens), drawn from several published reports.
# output: numeric value plus its unit

The molecule O=C(O)c1cccc(O[C@H]2CC[C@H]3CN[C@H](C(=O)O)C[C@H]3C2)c1 , when measured on Glutamate receptor ionotropic, kainate 1 (Homo sapiens), yielded Ki of 6 µM

The molecule O=C(O)[C@@H]1C[C@H]2C[C@@H](Oc3cc(Oc4ccccc4)ccc3-c3nnn[nH]3)CC[C@H]2CN1 , when measured on Glutamate receptor ionotropic, kainate 1 (Homo sapiens), yielded Ki of 17 µM

The molecule O=C(O)c1ccc(S[C@H]2CC[C@H]3CN[C@H](C(=O)O)C[C@H]3C2)cc1 , when measured on Glutamate receptor ionotropic, kainate 1 (Homo sapiens), yielded Ki of 19 µM

The molecule O=C(O)c1cccc(Cl)c1O[C@H]1CC[C@H]2CN[C@H](C(=O)O)C[C@H]2C1 , when measured on Glutamate receptor ionotropic, kainate 1 (Homo sapiens), yielded Ki of 316 µM

The molecule CC1(C)CCC/C1=C(/C[C@H](N)C(=O)O)C(=O)O , when measured on Glutamate receptor ionotropic, kainate 1 (Homo sapiens), yielded Ki of 0.236 µM

Others:
The molecule N[C@@H](C/C(=C\C1CCCCC1)C(=O)O)C(=O)O , when measured on Glutamate receptor ionotropic, kainate 1 (Homo sapiens), yielded Ki of 6.06 µM

The molecule COc1cccc(O[C@H]2CC[C@H]3CN[C@H](C(=O)O)C[C@H]3C2)c1-c1nnn[nH]1 , when measured on Glutamate receptor ionotropic, kainate 1 (Homo sapiens), yielded Ki of 1.1 µM

The molecule Cc1ccc(C(=O)O)c(O[C@H]2CC[C@H]3CN[C@H](C(=O)O)C[C@H]3C2)c1 , when measured on Glutamate receptor ionotropic, kainate 1 (Homo sapiens), yielded Ki of 5.9 µM

The molecule Cc1ccc(-c2nnn[nH]2)c(N[C@H]2CC[C@H]3CN[C@H](C(=O)O)C[C@H]3C2)c1 , when measured on Glutamate receptor ionotropic, kainate 1 (Homo sapiens), yielded Ki of 2.9 µM

====

The entries that follow carry Ki values tested on Glutamate receptor ionotropic, kainate 1 (Homo sapiens, UniProt P39086), drawn from several published reports.
Sequence (P39086 whole entry): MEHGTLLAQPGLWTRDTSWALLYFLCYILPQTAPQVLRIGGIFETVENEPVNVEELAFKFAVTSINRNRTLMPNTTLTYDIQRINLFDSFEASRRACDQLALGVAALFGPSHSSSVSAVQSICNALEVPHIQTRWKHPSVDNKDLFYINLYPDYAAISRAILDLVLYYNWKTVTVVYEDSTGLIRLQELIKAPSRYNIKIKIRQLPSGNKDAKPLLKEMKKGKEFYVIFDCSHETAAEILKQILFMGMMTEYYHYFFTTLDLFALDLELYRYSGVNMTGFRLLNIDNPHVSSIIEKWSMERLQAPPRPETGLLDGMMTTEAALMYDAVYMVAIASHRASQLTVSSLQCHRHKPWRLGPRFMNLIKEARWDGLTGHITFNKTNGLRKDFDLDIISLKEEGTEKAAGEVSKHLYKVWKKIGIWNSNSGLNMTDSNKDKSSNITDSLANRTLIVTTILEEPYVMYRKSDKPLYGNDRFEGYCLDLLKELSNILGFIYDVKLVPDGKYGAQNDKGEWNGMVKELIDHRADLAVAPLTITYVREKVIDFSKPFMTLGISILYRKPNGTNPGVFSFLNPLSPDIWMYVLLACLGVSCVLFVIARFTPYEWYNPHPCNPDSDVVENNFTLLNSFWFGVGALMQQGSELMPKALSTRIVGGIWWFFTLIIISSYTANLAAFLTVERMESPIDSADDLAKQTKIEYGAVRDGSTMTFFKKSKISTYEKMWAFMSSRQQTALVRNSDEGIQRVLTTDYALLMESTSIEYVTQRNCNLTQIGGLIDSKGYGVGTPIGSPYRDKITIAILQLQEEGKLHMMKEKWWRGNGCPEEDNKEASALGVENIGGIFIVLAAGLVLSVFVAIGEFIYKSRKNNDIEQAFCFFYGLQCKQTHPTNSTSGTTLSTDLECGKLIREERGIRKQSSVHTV
Output schema: class label derived from Ki. Mapping: c1 (below 1 µM), c2 (1 µM to below 6 µM), c3 (6 µM or more)

Illustrative cases are given below, each with its answer.
Returns: class label. Input: O=C(O)c1cc(-c2ccccc2)ccc1O[C@H]1CC[C@H]2CN[C@H](C(=O)O)C[C@H]2C1 c3

Returns: class label. Input: CC1(C)CCC/C1=C(\C[C@H](N)C(=O)O)C(=O)O c2

Returns: class label. Input: O=C(O)[C@@H]1C[C@H]2C[C@@H](Oc3ccc(F)cc3-c3nnn[nH]3)CC[C@H]2CN1 c1

Returns: class label. Input: Cc1ccc(-c2nnn[nH]2)c(O[C@H]2CC[C@H]3CN[C@H](C(=O)O)C[C@H]3C2)c1 c2

Returns: class label. Input: O=C(O)[C@@H]1C[C@H]2C[C@@H](Oc3cc(-c4cccnc4)ccc3-c3nnn[nH]3)CC[C@H]2CN1 c3

Others:
Returns: class label. Input: O=C(O)[C@@H]1C[C@H]2C[C@@H](Oc3ccc(Cl)cc3-c3nnn[nH]3)CC[C@H]2CN1 c1

Returns: class label. Input: C/C=C(/C[C@H](N)C(=O)O)C(=O)O c2

Returns: class label. Input: COc1ccc(C(=O)O)c(O[C@H]2CC[C@H]3CN[C@H](C(=O)O)C[C@H]3C2)c1 c3

Returns: class label. Input: O=C(O)c1cc(Cl)ccc1S[C@H]1CC[C@H]2CN[C@H](C(=O)O)C[C@H]2C1 c2
